Source of measurements: patent US20240270821A1

target: hGLP-1R (Homo sapiens, UniProt P43220); test: cell-based or functional assay
Sequence (P43220 24-463): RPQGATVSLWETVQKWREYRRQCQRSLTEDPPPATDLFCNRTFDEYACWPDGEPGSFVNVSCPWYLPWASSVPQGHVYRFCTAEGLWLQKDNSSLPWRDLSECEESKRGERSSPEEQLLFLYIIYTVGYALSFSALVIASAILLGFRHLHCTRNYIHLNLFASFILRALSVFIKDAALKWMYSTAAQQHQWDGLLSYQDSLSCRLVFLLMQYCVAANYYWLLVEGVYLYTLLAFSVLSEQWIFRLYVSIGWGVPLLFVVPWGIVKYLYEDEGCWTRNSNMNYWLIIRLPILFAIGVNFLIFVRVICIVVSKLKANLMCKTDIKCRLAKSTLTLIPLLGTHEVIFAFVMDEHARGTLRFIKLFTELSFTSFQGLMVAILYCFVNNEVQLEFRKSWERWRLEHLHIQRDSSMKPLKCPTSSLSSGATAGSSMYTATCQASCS
Measurement kind: Relative cAMP EC50 (nM)
Give a bare numeral; the unit nM is implied.

// below: answered binders
# Binder, Measurement kind, Unit abbrev, Numeric result
data = [
    ("YXQGTXTSDXSIXLDXKAQXEFIEXLAEGGPSSGAPPPSGS (Aib, αMeF(2F), 4Pal, Orn, Me4Pal, αMeY; K (γGlu)2-C18 diacid; amide; synthetic construct; SITE 2: note = 2-Aminoisobutyric Acid; SITE 6: note = alpha-methyl-2-fluoro-L-phenylalanine; SITE 10: note = 3-(4-Pyridyl)-L-alanine; SITE 13: note = alpha-methyl-leucine; SITE 16: note = L-ornithine; SITE 17: note = Lysine is chemically modified through conjugation of the epsil) [Example 646]", "Relative cAMP EC50", "nM", 2.58),
    ("YXQGTXTSDXSILLDKKAQXAFIEYLEEGGPSSGAPPPS (not fully specified; synthetic construct; SITE 2: note = 2-Aminoisobutyric Acid; SITE 6: note = alpha-methyl-2-fluoro-L-phenylalanine; SITE 10: note = 3-(4-Pyridyl)-L-alanine; SITE 17: note = Lysine is chemically modified through conjugation of the epsilon-amino group of the Lysine side chain with (gamma-Glu)2-CO-(CH2)1) [Example 413]", "Relative cAMP EC50", "nM", 0.564),
]

Here is the next item to consider.
### Prompt Provide Relative cAMP EC50 value for the following binder: YXQGTFTSDFSXXLDKKAQXAFIEWLLEGGHSSGAPPPGGE (synthetic construct; SITE 2: note = 2-Aminoisobutyric Acid; SITE 12: note = L-ornithine; SITE 13: note = alpha-methyl-leucine; SITE 17: note = Lysine is chemically modified through conjugation of the epsilon-amino group of the Lysine side chain with (2-[2-(2-Amino-ethoxy)-ethoxy]-acetyl)-(gamma-Glu)) [Example 273]
### Response 4.02
